Test: Plasma pharmacokinetics by LC-MS/MS
Format: in vivo, human
Settings: human, plasma, po, 3000 mg, DL1-DL9: THU 3000 mg oral once daily (n=44); geom. mean (geom. SD); read-out: THU t½ (converted)
measureName: half-life (h)

{"compound": "O=C1NC(O)CCN1[C@@H]1O[C@H](CO)[C@@H](O)[C@H]1O (stereo partly shown) [THU, tetrahydrouridine]", "measureName": "half-life", "endpointUnit": "h", "observedResult": 8.8}

----------
Assay: Plasma pharmacokinetics by LC-MS/MS
Type: in vivo, human
Conditions: human, plasma, po, DL11: FdCyd 80 mg + THU 6000 mg oral (n=3); geom. mean (geom. SD); read-out: FdCyd AUC0-inf
Method: Blood specimens for PK analysis were collected on Cycle 1 Day 1 (C1D1) prior to THU administration and then at 15, 30, and 45 min and 1, 2, 3, 4, 5, and 6 h after THU administration, as well as on C1D2 and C1D3 prior to and 2 h after THU administration. […] All specimens for PK analysis were processed and analyzed by LC-MS/MS as described previously, and Phoenix WinNonlin software was used for data analysis.
measureName: AUC(0-inf) (ng·h/mL)

{"compound": "Nc1nc(=O)n([C@H]2C[C@H](O)[C@@H](CO)O2)cc1F [FdCyd, 5-fluoro-2’-deoxycytidine]", "observedResult": 1220}

----------
Assay: Plasma pharmacokinetics by LC-MS/MS
Assay type: in vivo, human
Conditions: human, plasma, po, DL2: FdCyd 60 mg + THU 3000 mg oral (n=4); geom. mean (geom. SD); read-out: FdCyd Cmax
measureName: Cmax (ng/mL)

{"structureAsSmiles": "Nc1nc(=O)n([C@H]2C[C@H](O)[C@@H](CO)O2)cc1F", "measureName": "Cmax", "observedResult": 290}

----------
Assay: Plasma pharmacokinetics by LC-MS/MS
Assay type: in vivo, human
Details: human, plasma, po, All FdCyd doses + THU 6000 mg oral (n=11); geom. mean (geom. SD); read-out: FdCyd Vz/F

{"structureAsSmiles": "Nc1nc(=O)n([C@H]2C[C@H](O)[C@@H](CO)O2)cc1F", "Vd/F / L": 56}

----------
Experiment: Plasma pharmacokinetics by LC-MS/MS
Assay type: in vivo, human
Conditions: human, plasma, po, All FdCyd doses + THU 6000 mg oral (n=11); geom. mean (geom. SD); read-out: FdCyd t½ (converted)

{"molecule": "Nc1nc(=O)n([C@H]2C[C@H](O)[C@@H](CO)O2)cc1F [FdCyd, 5-fluoro-2’-deoxycytidine]", "half-life / min": 30}

----------
Assay: Plasma pharmacokinetics by LC-MS/MS
Assay type: in vivo, human
Settings: human, plasma, oral, Total, all dose levels (n=55); geom. mean (geom. SD); read-out: THU t½ (converted)

{"compound": "O=C1NC(O)CCN1[C@@H]1O[C@H](CO)[C@@H](O)[C@H]1O (stereo partly shown) [THU, tetrahydrouridine]", "endpointUnit": "h", "half-life": 8.7}

----------
Assay: Plasma pharmacokinetics by LC-MS/MS
Assay type: in vivo, human
Settings: human, plasma, po, DL10: FdCyd 60 mg + THU 6000 mg oral (n=8); geom. mean (geom. SD); read-out: FdCyd t½ (converted)
measureName: half-life (min)

{"structureAsSmiles": "Nc1nc(=O)n([C@H]2C[C@H](O)[C@@H](CO)O2)cc1F", "endpointUnit": "min", "observedResult": 30}

----------
Experiment: Plasma pharmacokinetics by LC-MS/MS
Assay type: in vivo, human
Details: human, plasma, po, 3000 mg, DL1-DL9: THU 3000 mg oral once daily (n=44); geom. mean (geom. SD); read-out: THU AUC0-inf

{"compound": "O=C1NC(O)CCN1[C@@H]1O[C@H](CO)[C@@H](O)[C@H]1O (stereo partly shown) [THU, tetrahydrouridine]", "endpointUnit": "ng·h/mL", "AUC(0-inf)": 21100}

----------
Assay: Plasma pharmacokinetics by LC-MS/MS
Assay type: in vivo, human
Conditions: human, plasma; DL1-DL9: THU 3000 mg oral once daily (n=44); geom. mean (geom. SD); read-out: THU Cmin24h
Procedure: Blood specimens for PK analysis were collected on Cycle 1 Day 1 (C1D1) prior to THU administration and then at 15, 30, and 45 min and 1, 2, 3, 4, 5, and 6 h after THU administration, as well as on C1D2 and C1D3 prior to and 2 h after THU administration. […] All specimens for PK analysis were processed and analyzed by LC-MS/MS as described previously, and Phoenix WinNonlin software was used for data analysis.

{"compound": "O=C1NC(O)CCN1[C@@H]1O[C@H](CO)[C@@H](O)[C@H]1O (stereo partly shown) [THU, tetrahydrouridine]", "concentration at 24 h": "260 ng/mL"}

----------
Experiment: Plasma pharmacokinetics by LC-MS/MS
Format: in vivo, human
Conditions: human, plasma, po, DL11: FdCyd 80 mg + THU 6000 mg oral (n=3); geom. mean (geom. SD); read-out: FdCyd Cmax
Protocol: Blood specimens for PK analysis were collected on Cycle 1 Day 1 (C1D1) prior to THU administration and then at 15, 30, and 45 min and 1, 2, 3, 4, 5, and 6 h after THU administration, as well as on C1D2 and C1D3 prior to and 2 h after THU administration. […] All specimens for PK analysis were processed and analyzed by LC-MS/MS as described previously, and Phoenix WinNonlin software was used for data analysis.
measureName: Cmax (ng/mL)

{"molecule": "Nc1nc(=O)n([C@H]2C[C@H](O)[C@@H](CO)O2)cc1F [FdCyd, 5-fluoro-2’-deoxycytidine]", "measureName": "Cmax", "observedResult": 570}

----------
Assay: Plasma pharmacokinetics by LC-MS/MS
Format: in vivo, human
Details: human, plasma, po, All FdCyd doses + THU 3000 mg oral (n=44); geom. mean (geom. SD); read-out: FdCyd Vz/F

{"compound": "Nc1nc(=O)n([C@H]2C[C@H](O)[C@@H](CO)O2)cc1F [FdCyd, 5-fluoro-2’-deoxycytidine]", "endpointUnit": "L", "Vd/F": 111}

----------
Assay: Plasma pharmacokinetics by LC-MS/MS
Assay type: in vivo, human
Conditions: human, plasma, po, DL10: FdCyd 60 mg + THU 6000 mg oral (n=8); geom. mean (geom. SD); read-out: FdCyd Vz/F

{"structureAsSmiles": "Nc1nc(=O)n([C@H]2C[C@H](O)[C@@H](CO)O2)cc1F", "endpointUnit": "L", "Vd/F": 63}

----------
Test: Plasma pharmacokinetics by LC-MS/MS
Assay type: in vivo, human
Settings: human, plasma, po, DL1: FdCyd 30 mg + THU 3000 mg oral (n=3); geom. mean (geom. SD); read-out: FdCyd t½ (converted)
measureName: half-life (min)

{"structureAsSmiles": "Nc1nc(=O)n([C@H]2C[C@H](O)[C@@H](CO)O2)cc1F", "measureName": "half-life", "observedResult": 36}

----------
Experiment: Plasma pharmacokinetics by LC-MS/MS
Type: in vivo, human
Details: human, plasma, po, DL1: FdCyd 30 mg + THU 3000 mg oral (n=3); geom. mean (geom. SD); read-out: FdCyd Tmax
measureName: Tmax (min)

{"structureAsSmiles": "Nc1nc(=O)n([C@H]2C[C@H](O)[C@@H](CO)O2)cc1F", "measureName": "Tmax", "observedResult": 54}

----------
Experiment: Plasma pharmacokinetics by LC-MS/MS
Type: in vivo, human
Settings: human, plasma, po, DL10: FdCyd 60 mg + THU 6000 mg oral (n=8); geom. mean (geom. SD); read-out: FdCyd Tmax

{"structureAsSmiles": "Nc1nc(=O)n([C@H]2C[C@H](O)[C@@H](CO)O2)cc1F", "Tmax / min": 48}

----------
Assay: Plasma pharmacokinetics by LC-MS/MS
Type: in vivo, human
Details: human, plasma, po, DL1: FdCyd 30 mg + THU 3000 mg oral (n=3); geom. mean (geom. SD); read-out: FdCyd AUC0-inf
measureName: AUC(0-inf) (ng·h/mL)

{"structureAsSmiles": "Nc1nc(=O)n([C@H]2C[C@H](O)[C@@H](CO)O2)cc1F", "observedResult": 140}

----------
Test: Plasma pharmacokinetics by LC-MS/MS
Format: in vivo, human
Conditions: human, plasma, po, DL5-9: FdCyd 160 mg + THU 3000 mg oral (n=31); geom. mean (geom. SD); read-out: FdCyd t½ (converted)
measureName: half-life (min)

{"structureAsSmiles": "Nc1nc(=O)n([C@H]2C[C@H](O)[C@@H](CO)O2)cc1F", "observedResult": 36}

----------
Assay: Plasma pharmacokinetics by LC-MS/MS
Format: in vivo, human
Settings: human, plasma, po, DL5-9: FdCyd 160 mg + THU 3000 mg oral (n=31); geom. mean (geom. SD); read-out: FdCyd Cmax

{"structureAsSmiles": "Nc1nc(=O)n([C@H]2C[C@H](O)[C@@H](CO)O2)cc1F", "Cmax / ng/mL": 580}
